study-target: thrombin (Homo sapiens, UniProt P00734)
assay-comment: colorimetric microplate assay with synthetic peptide substrates, inhibition of thrombin
Format: biochemical
settings: most active compound; read-out: Ki
Non-standard residues stand in square brackets, D forms with d. Residues, ends and D or L forms follow the SMILES beside them. *: point of attachment. dPhe(4-Br) = N[C@H](Cc1ccc(Br)cc1)C(=O)O; Agmatine = N=C(N)NCCCCN*
property: Ki (nM)
Numbers only; they are read as nM.

What Ki appears in the records for this molecule with thrombin (Homo sapiens, UniProt P00734)? N=C(N)NCCCCNC(=O)[C@@H]1CCCN1C(=O)[C@H](N)Cc1ccc(Br)cc1 [Compound A3B1] (H-[dPhe(4-Br)]-Pro-Agmatine)
41
